- System: F9 cells
- method.summary: Production of secreted plasminogen activator by differentiating F9 cells (biological activity, CPA50)
- Type: cell-based, murine
- condition.parameters: Mus musculus, 72 h; concentration causing induction of 50% of the maximum of secreted plasminogen activator; F9 cells; incubation of 3 days; read-out: BIOLOGICAL ACTIVITY CPA50
recorded.endpoint: EC50 (nM)
Kindly answer with a numeric value in nM, unit omitted.

What does the data say about its EC50? Entry: "CC1(C)CCC(C)(C)c2cc3cc(-c4ccc(C(=O)O)cc4)ccc3cc21"
1

Please give the result for "CC1(C)CCC(C)(C)c2cc(-c3ccc4cc(C(=O)O)ccc4c3)ccc21" too.
66

Cool, now "CC1(C)CCC(C)(C)c2cc(C(=O)Nc3ccc(C(=O)O)cc3)ccc21"
85

Same read-out for "CC1=C(/C=C/C(C)=C/C=C/C(C)=C/CO)C(C)(C)CCC1" ?
2500

###

Task for the reader: assign each of the following molecules its reported Kd.
- target.desc: CRABP (Rattus norvegicus, UniProt P62966)
- Construct: rat testicle cytosol containing CRABP; from tissue
- Sequence (P62966 whole entry): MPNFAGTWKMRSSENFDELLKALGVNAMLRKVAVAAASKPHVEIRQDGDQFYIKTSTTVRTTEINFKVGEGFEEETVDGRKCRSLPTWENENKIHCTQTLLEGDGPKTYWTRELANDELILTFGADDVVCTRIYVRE
- method.summary: Competition with the claimed marked compound for CRABP
- Format: binding
- condition.parameters: Table 1; Kd calculated from competition IC50; radioligand about 4 nM; read-out: AFFINITY CRABP:Kd
Give just the numeric value; nM need not be written.

I'd like to know its Kd. The molecule in question is "CC1(C)CCC(C)(C)c2cc(-c3ccc4cc(C(=O)O)ccc4c3)ccc21"
20

And what about the molecule "CC1(C)CCC(C)(C)c2cc(C(=O)Nc3ccc(C(=O)O)cc3)ccc21" ?
200

Query "CC1(C)CCC(C)(C)c2cc3cc(-c4ccc(C(=O)O)cc4)ccc3cc21" next
4

# repeat for "CC1=C(/C=C/C(C)=C/C=C/C(C)=C/CO)C(C)(C)CCC1"
600

###

Kindly state pKd for each of the entries shown.
- target.desc: CRABP (Rattus norvegicus, UniProt P62966)
- Construct: rat testicle cytosol containing CRABP; from tissue
- method.summary: Competition with the claimed marked compound for CRABP
- Assay type: binding
Note on pKd: it is the negative log10 of concentration, concentration in mol/L.

Param readout = pKd; param system = CRABP (Rattus norvegicus, UniProt P62966); param query = "CC1(C)CCC(C)(C)c2cc(-c3cc4ccc(C(=O)O)cc4o3)ccc21" ; response: value
6.70

And for "CC1(C)CCC(C)(C)c2cc(-c3cc4ccc(C(=O)O)cc4s3)ccc21" ?
8.70

Now try "Cc1c(C(=O)O)cc(S)c2cc(-c3ccc4c(c3)C(C)(C)CCC4(C)C)ccc12" .
6.70
